assay-system: farnesyl protein transferase (Homo sapiens, UniProt P49354+P49356)
method-description: In vitro assay for inhibition of farnesyl protein transferase
Type: biochemical
particulars: negative log value of the IC50-value; IC50 = concentration needed to reduce the product of the enzymatic reaction to 50% of the control; read-out: Enzyme activity pIC50 (converted)
assay-metric: IC50 (nM)

I = Cn1cnnc1C(c1ccc(F)cc1)(c1cc2c3c(c1)c(-c1cccc(Cl)c1)cc(=O)n3CC2)n1ccnc1 (stereo not shown) [Compound 8]
II = Cn1cnnc1C(c1ccc(C#N)cc1)c1cc2c3c(c1)c(-c1cccc(Cl)c1)cc(=O)n3CC2 (stereo not shown) [Compound 2]
Lookup: Lab note: check whether I or II shows the higher recorded IC50. Returns: label corresponding to the selected item.
Found: I
(I: 3.84 nM, II: 2.02 nM)
